# experiment summary: The drug is tested on Z-014 corresponding to rat gut metagenome with ENA study accession number: PRJEB37062 and ENA sample accession number: ERS12561814 for biotransformation under anaerobic condition. The drug concentrations were measured over 9 timepoints collected between 0 and 24 hours of incubation by liquid-chromatography-coupled mass spectrometry (LC–MS); further: call rule not given here
# condition set: 2 µM
measured metric: Bacterial Biotransformation

>>> value("COc1ccccc1OCCNCC(O)COc1cccc2[nH]c3ccccc3c12 (stereo not drawn) [CARVEDILOL]")
"Compound NOT metabolized"
>>> value("CN(C)CCC=C1c2ccccc2COc2ccccc21 [DOXEPIN]")
"Compound NOT metabolized"
>>> value("c1ccc2[nH]c(-c3cscn3)nc2c1 [THIABENDAZOLE]")
"Compound NOT metabolized"
>>> value("Nc1nnc(-c2cccc(Cl)c2Cl)c(N)n1 [LAMOTRIGINE]")
"Compound NOT metabolized"
>>> value("CN1[C@@H]2CC[C@H]1C[C@@H](OC(=O)c1c[nH]c3ccccc13)C2 [TROPISETRON]")
"Compound NOT metabolized"
>>> value("CCN(CC)CCOC(=O)C1(C2CCCCC2)CCCCC1 [DICYCLOMINE]")
"Compound NOT metabolized"
>>> value("CC(NC(C)(C)C)C(=O)c1cccc(Cl)c1 (stereo not drawn) [BUPROPION]")
"Compound NOT metabolized"
>>> value("COc1ccc2c(c1)c(CC(=O)O)c(C)n2C(=O)c1ccc(Cl)cc1 [INDOMETHACIN]")
"Compound NOT metabolized"
>>> value("CCN(C)C(=O)Oc1cccc([C@H](C)N(C)C)c1.O=C(O)C(O)C(O)C(=O)O [RIVASTIGMINE TARTRATE]")
"Compound NOT metabolized"
>>> value("CCCN1C[C@H](CSC)C[C@@H]2c3cccc4[nH]cc(c34)C[C@H]21.CS(=O)(=O)O [PERGOLIDE MESYLATE]")
"Compound NOT metabolized"
>>> value("O=C1CCc2ccc(OCCCCN3CCN(c4cccc(Cl)c4Cl)CC3)cc2N1 [ARIPIPRAZOLE]")
"Compound metabolized"
>>> value("CCN(CC)CCNC(=O)c1ccc(NC(C)=O)cc1 [ACECAINIDE]")
"Compound NOT metabolized"
>>> value("C[C@]12CCC(=O)C=C1[C@@H]1C[C@@H]1[C@H]1[C@@H]3[C@@H]4C[C@@H]4[C@@]4(CCC(=O)O4)[C@@]3(C)CC[C@@H]12 [DROSPIRENONE]")
"Compound NOT metabolized"
>>> value("CC(C)c1c(CN(C)C(C)Cc2ccccc2)n(C)n(-c2ccccc2)c1=O (stereo not drawn) [FAMPROFAZONE]")
"Compound metabolized"
>>> value("CN1CCC[C@@H]1CCO[C@](C)(c1ccccc1)c1ccc(Cl)cc1.O=C(O)/C=C/C(=O)O [CLEMASTINE FUMARATE]")
"Compound NOT metabolized"
>>> value("COc1ccc(/C=C/C(=O)Nc2ccccc2C(=O)O)cc1OC")
"Compound metabolized"
>>> value("Nc1nc(N)nc(-c2cc(Cl)ccc2Cl)n1.O=C(O)/C=C\\C(=O)O [IRSOGLADINE MALEATE]")
"Compound NOT metabolized"
>>> value("O=C1CC2(CCCC2)CC(=O)N1CCCCN1CCN(c2ncccn2)CC1 [BUSPIRONE]")
"Compound NOT metabolized"
